molecular target: hmGlu1 (Homo sapiens); assay: Calcium mobilization mGlu1 PAM potency assay; assay type: cell-based; conditions: T-REx-293, read-out: hmGlu1 % Glu Max (±SEM)
Sequence (Q13255 19-1194): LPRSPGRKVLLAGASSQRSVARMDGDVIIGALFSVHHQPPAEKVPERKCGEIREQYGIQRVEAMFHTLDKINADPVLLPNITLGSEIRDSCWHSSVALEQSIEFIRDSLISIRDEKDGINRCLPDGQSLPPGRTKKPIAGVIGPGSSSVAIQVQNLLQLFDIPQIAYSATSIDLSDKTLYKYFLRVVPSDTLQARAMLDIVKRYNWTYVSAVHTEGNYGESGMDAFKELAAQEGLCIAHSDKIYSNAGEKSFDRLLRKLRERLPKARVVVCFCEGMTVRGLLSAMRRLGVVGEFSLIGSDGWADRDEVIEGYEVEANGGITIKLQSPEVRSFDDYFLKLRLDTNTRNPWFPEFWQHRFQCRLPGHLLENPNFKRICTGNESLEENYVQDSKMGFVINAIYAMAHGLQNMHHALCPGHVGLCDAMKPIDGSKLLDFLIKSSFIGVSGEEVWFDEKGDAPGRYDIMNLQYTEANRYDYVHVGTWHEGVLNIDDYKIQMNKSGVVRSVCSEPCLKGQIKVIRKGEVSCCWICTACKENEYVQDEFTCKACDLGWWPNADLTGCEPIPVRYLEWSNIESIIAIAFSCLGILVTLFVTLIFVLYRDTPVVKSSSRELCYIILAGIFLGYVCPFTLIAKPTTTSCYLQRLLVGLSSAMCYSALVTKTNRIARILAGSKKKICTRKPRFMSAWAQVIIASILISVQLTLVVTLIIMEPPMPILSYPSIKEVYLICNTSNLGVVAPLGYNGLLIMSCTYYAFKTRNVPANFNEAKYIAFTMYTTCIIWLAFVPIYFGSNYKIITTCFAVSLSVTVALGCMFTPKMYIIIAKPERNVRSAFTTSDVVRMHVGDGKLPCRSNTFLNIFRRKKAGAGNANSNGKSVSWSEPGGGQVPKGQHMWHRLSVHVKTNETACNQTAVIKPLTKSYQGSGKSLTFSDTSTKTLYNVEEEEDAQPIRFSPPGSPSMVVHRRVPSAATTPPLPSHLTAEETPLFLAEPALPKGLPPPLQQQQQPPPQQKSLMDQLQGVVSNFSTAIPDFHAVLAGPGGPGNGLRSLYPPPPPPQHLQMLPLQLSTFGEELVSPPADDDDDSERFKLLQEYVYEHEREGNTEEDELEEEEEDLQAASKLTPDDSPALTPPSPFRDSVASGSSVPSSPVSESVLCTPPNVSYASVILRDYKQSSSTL
reported property: Emax (%)

INSERT INTO results (compound, reported_property, numeric_result) VALUES
  ('Cc1ccc2c(c1)C(=O)N(c1ccc(NC(=O)c3ncccc3Cl)cc1Cl)C2=O [24b]', 'Emax', 82),
  ('Cc1cccnc1C(=O)Nc1ccc(N2C(=O)c3cccc(F)c3C2=O)c(Cl)c1 [23e]', 'Emax', 90),
  ('Cc1cccc2c1C(=O)N(c1ccc(NC(=O)c3ncccc3Cl)cc1Cl)C2=O [24a]', 'Emax', 110),
  ('Cc1cccnc1C(=O)Nc1ccc(N2C(=O)c3cccc(C)c3C2=O)c(Cl)c1 [23a]', 'Emax', 101),
  ('Cc1ccc2c(c1)C(=O)N(c1ccc(NC(=O)c3ncccc3C)cc1Cl)C2=O [23b]', 'Emax', 130),
  ('O=C(Nc1ccc(N2C(=O)c3cccc(F)c3C2=O)c(Cl)c1)c1ncccc1Cl [24e]', 'Emax', 117);

* * *

biological target: CYP2D6 (Homo sapiens, UniProt P10635); test: Cytochrome P450 inhibition; format: in vitro ADME
Sequence (P10635 whole entry): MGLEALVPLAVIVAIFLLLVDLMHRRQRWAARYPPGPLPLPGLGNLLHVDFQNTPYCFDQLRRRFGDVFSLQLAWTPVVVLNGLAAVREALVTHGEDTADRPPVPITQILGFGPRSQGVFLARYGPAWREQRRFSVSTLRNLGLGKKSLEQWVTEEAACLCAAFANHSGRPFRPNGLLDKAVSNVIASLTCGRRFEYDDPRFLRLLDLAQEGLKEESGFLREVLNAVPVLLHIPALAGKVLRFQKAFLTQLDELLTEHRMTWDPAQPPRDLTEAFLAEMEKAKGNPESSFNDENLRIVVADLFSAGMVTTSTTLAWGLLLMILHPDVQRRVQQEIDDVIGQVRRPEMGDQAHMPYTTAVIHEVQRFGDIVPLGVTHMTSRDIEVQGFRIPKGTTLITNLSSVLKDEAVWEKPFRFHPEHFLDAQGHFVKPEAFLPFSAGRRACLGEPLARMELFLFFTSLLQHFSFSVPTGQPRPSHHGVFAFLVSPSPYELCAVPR
reported property: IC50

Enquiry: Which IC50 is reported for this compound? O=C(Nc1ccc(N2C(=O)c3cccc(Cl)c3C2=O)c(Cl)c1)c1ncccc1Cl [24c]
Return: > 30 µM

* * *

target: mGlu1 WT receptor (Homo sapiens)
Sequence (Q13255 19-1194): as the sequence (Q13255 19-1194) above
reported property: pEC50
Note: pEC50 values are expressed as the negative base-10 logarithm of concentration in M.

Enquiry: Which pEC50 is reported for this compound? N[C@H](C(=O)O)c1cc(O)cc(O)c1 [DHPG, (S)-3,5-dihydroxyphenylglycine]
Return: 5.60

* * *

biological target: hmGlu1 (Homo sapiens); test: Calcium mobilization mGlu1 PAM potency assay; type: cell-based; details: hmGlu1 EC50, text and Figure 6
reported property: pEC50
Note: pEC50 values are expressed as the negative base-10 logarithm of concentration in M.

Enquiry: Which pEC50 is reported for this compound? Cc1cccnc1C(=O)Nc1ccc(N2C(=O)c3cccc(Cl)c3C2=O)c(Cl)c1 [23c]
Return: 6.43

* * *

molecular target: UniProt:P05177; test: Cytochrome P450 inhibition; type: in vitro ADME
Sequence (P05177 whole entry): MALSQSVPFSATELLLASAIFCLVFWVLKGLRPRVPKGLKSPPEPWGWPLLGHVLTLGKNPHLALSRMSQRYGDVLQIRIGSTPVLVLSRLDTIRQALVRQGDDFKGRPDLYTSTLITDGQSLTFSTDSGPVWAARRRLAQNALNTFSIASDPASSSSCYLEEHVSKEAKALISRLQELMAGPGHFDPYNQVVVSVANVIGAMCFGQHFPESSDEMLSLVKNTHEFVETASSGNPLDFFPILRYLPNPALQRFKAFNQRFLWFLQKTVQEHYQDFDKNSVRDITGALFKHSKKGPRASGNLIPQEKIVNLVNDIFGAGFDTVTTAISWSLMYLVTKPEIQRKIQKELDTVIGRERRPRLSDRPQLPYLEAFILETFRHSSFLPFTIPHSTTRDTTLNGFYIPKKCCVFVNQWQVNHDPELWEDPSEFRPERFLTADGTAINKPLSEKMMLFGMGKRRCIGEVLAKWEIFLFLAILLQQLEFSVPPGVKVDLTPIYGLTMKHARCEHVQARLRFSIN
reported property: IC50

Enquiry: Which IC50 is reported for this compound? O=C(Nc1ccc(N2C(=O)c3cccc(Cl)c3C2=O)c(Cl)c1)c1ncccc1Cl [24c]
Return: > 30 µM

* * *

molecular target: CYP2C9 (Homo sapiens, UniProt P11712); assay: Cytochrome P450 inhibition; type: in vitro ADME
Sequence (P11712 whole entry): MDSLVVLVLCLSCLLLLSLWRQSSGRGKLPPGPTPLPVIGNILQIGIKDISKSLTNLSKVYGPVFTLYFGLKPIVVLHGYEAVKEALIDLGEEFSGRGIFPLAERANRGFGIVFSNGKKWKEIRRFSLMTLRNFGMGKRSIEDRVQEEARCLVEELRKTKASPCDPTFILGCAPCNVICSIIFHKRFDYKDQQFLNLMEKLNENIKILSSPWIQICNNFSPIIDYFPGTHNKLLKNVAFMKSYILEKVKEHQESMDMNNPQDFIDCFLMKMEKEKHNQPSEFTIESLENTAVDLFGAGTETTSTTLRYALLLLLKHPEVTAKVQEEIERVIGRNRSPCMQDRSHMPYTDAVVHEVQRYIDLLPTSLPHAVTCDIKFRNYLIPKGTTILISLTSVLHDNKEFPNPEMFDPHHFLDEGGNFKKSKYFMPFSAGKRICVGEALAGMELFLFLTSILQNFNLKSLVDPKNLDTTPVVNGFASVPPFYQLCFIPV
pIC50: −log10 of the molar value.
reported property: pIC50

Enquiry: GET /values?readout=pIC50&system=CYP2C9 (Homo sapiens, UniProt P11712)&item= O=C(Nc1ccc(N2C(=O)c3cccc(Cl)c3C2=O)c(Cl)c1)c1ncccc1Cl [24c]
Return: < 4.52

* * *

molecular target: UniProt:Q13255; assay: Calcium mobilization mGlu1 PAM potency assay; format: cell-based; settings: hmGlu1 EC50, calcium mobilization; average of n = 3 performed in triplicate
reported property: EC50 (nM)

Illustrative cases are given below, each with its answer.
INSERT INTO assay_data (molecule, tested_target, reported_property, unit_descriptor, numeric_result) VALUES
  ('O=C(Nc1ccc(N2C(=O)c3cccc(Cl)c3C2=O)c(Cl)c1)c1ncccc1Cl [24c]', 'UniProt:Q13255', 'EC50', 'nM', 391),
  ('O=C(Nc1ccc(N2C(=O)c3cccc(F)c3C2=O)c(Cl)c1)c1ncccc1Cl [24e]', 'UniProt:Q13255', 'EC50', 'nM', 1140),
  ('Cc1ccc2c(c1)C(=O)N(c1ccc(NC(=O)c3ncccc3Cl)cc1Cl)C2=O [24b]', 'UniProt:Q13255', 'EC50', 'nM', 832),
  ('Cc1cccc2c1C(=O)N(c1ccc(NC(=O)c3ncccc3Cl)cc1Cl)C2=O [24a]', 'UniProt:Q13255', 'EC50', 'nM', 177),
  ('Cc1cccnc1C(=O)Nc1ccc(N2C(=O)c3cccc(Cl)c3C2=O)c(Cl)c1 [23c]', 'UniProt:Q13255', 'EC50', 'nM', 372);

a: Cc1cccnc1C(=O)Nc1ccc(N2C(=O)c3cccc(F)c3C2=O)c(Cl)c1 [23e]
b: Cc1cccnc1C(=O)Nc1ccc(N2C(=O)c3cccc(C)c3C2=O)c(Cl)c1 [23a]
Enquiry: Which of the two items, a and b , has the greater recorded EC50? Use the label to indicate which entry you chose.
Return: a
